log10 of Kd for assorted binders
- ASSAYED SYSTEM: T1, soluble human CD3 epsilon chain (human, UniProt P07766 23-126)
- T1 construct: also called CD3ε
- T1 sequence (P07766 23-126 limits assumed): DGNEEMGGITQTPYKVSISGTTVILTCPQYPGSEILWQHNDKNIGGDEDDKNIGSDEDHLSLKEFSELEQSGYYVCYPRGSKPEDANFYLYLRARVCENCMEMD
- ASSAY DETAILS: SPR
Please keep in mind that the values are log10 of Kd expressed in nM.

response.value for TR01H096-E22Hh/none-Hi-Kn010G3/L0011-k0 (antibody, V domains shown, one-arm) VH: QVQLVESGGGLVQPGRSLRLSCAASGFTFSNAWMHWVRQAPGKGLEWVAQIKDKSQNYAGYYAESVKGRFTISRDDSKNSLYLQMNSLKTEDTAVYYCRYVHYAAGYGVDAWGQGTTVTVSS VL: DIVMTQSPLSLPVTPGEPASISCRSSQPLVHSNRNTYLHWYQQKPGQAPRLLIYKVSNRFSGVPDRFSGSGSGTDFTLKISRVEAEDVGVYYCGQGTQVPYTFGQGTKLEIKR (field: log10 of Kd) = 1.87

response.value for TR01H040-E22Hh/none-Hi-Kn010G3/L0235-k0 (antibody, V domains shown, one-arm) VH: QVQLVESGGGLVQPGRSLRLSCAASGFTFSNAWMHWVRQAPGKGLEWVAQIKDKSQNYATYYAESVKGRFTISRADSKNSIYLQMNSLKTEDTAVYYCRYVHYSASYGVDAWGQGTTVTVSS VL: DIVMTQSPLSLPVTPGEPASISCRSSQEPVHSNRNTYLHWYQQKPGQAPRLLIYKVSNRFSGVPDRFSGSGSGTDFTLKISRVEAEDVGVYYCYQGTQVPYTFGQGTKLEIK (field: log10 of Kd) = 0.45

response.value for TR01H083-E22Hh/none-Hi-Kn010G3/L0222-k0 (antibody, V domains shown, one-arm) VH: QVQLVESGGGLVQPGRSLRLSCAASGFTFSNAWMHWVRQAPGKGLEWVAQIKDKSNNYATYYAESVKGRFTISRADSKNSIYLQMNSLKTEDTAVYYCRYVHYAAGYGVDIWGQGTTVTVSS VL: DIVMTQSPLSLPVTPGEPASISCRSSQSPVHSNRNTYIQWYQQKPGQAPRLLIYKVSNRFSGVPDRFSGSGSGTDFTLKISRVEAEDVGVYYCYQGTQVPYTFGQGTKLEIKR (field: log10 of Kd) = 0.97

response.value for TR01H040-E22Hh/none-Hi-Kn010G3/L0232-k0 (antibody, V domains shown, one-arm) VH: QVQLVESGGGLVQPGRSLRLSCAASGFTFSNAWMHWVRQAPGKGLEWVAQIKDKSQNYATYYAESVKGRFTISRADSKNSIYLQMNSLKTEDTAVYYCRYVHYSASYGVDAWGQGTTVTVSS VL: DIVMTQSPLSLPVTPGEPASISCRSSESLVHSNRNTYLHWYQQKPGQAPRLLIYKVSNRFSGVPDRFSGSGSGTDFTLKISRVEAEDVGVYYCGQGTQVPYTFGQGTKLEIK (field: log10 of Kd) = 1.59

response.value for TR01H008-E22Hh/none-Hi-Kn010G3/L0000-k0 (antibody, V domains shown, one-arm) VH: QVQLVESGGGLVQPGRSLRLSCAASGFTFSNAWMHWVRQAPGKGLEWVAQIKGKSNNYATYYAESVKGRFTISRADSKNSIYLQMNSLKTEDTAVYYCRYVHYGAYYGVDIWGQGTTVTVSS VL: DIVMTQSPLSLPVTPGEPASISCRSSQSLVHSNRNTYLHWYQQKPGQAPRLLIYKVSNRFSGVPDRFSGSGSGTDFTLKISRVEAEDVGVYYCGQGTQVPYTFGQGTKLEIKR (field: log10 of Kd) = 1.63

Continuing:
response.value for rCE115H-G1dh//-Hi-Kn010G3/L0000-k0 (antibody, V domains shown, one-arm) VH: EVQLVETGGSLVQPGKSLKLTCATSGFTFSNAWMHWVRQSPEKQLEWVAQIKAKSNNYATYYAESVKGRFTISRDDSKSNIYLQMNSLKEEDTAVYYCRYVHYGAYYGVDAWGQGTSVTVSS VL: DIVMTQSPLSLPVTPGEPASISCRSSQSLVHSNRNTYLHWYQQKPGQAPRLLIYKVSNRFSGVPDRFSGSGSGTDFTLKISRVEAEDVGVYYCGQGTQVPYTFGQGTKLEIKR (field: log10 of Kd) = 1.76

response.value for TR01H082-E22Hh/none-Hi-Kn010G3/L0203-k0 (antibody, V domains shown, one-arm) VH: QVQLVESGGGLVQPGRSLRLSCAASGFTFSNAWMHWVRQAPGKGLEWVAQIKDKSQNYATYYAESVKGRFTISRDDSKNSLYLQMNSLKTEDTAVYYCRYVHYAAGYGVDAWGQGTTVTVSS VL: DIVMTQSPLSLPVTPGEPASISCRSSQSPVHSNRNTYIHWYQQKPGQAPRLLIYKVSNRFSGVPDRFSGSGSGTDFTLKISRVEAEDVGVYYCGQGTQVPYTFGQGTKLEIKR (field: log10 of Kd) = 1.61

response.value for TR01H045-E22Hh/none-Hi-Kn010G3/L0000-k0 (antibody, V domains shown, one-arm) VH: QVQLVESGGGLVQPGRSLRLSCSASGFTFSNAWMHWVRQAPGKGLEWVAQIKDKSQNYATYYAESVKGRFTISRADSKNSIYLQMNSLKTEDTAVYYCRYVHYSASYGVDAWGQGTTVTVSS VL: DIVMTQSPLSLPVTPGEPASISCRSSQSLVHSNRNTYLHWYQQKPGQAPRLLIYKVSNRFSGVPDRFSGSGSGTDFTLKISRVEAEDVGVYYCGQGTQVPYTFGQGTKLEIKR (field: log10 of Kd) = 1.72

response.value for TR01H006-E22Hh/none-Hi-Kn010G3/L0000-k0 (antibody, V domains shown, one-arm) VH: QVQLVESGGGLVQPGRSLRLSCAASGFTFSNAWMHWVRQAPGKGLEWVAQIKAKSQNYATYYAESVKGRFTISRADSKNSIYLQMNSLKTEDTAVYYCRYVHYGAYYGVDIWGQGTTVTVSS VL: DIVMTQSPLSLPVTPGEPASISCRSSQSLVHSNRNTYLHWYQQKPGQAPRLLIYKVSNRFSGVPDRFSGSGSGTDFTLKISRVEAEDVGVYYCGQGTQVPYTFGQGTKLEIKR (field: log10 of Kd) = 1.36

response.value for TR01H067-E22Hh/none-Hi-Kn010G3/L0201-k0 (antibody, V domains shown, one-arm) VH: QVQLVESGGGLVQPGRSLRLSCAASGFTFSNAWMHWVRQAPGKGLEWVAQIKDKSQNYATYYAESVKGRFTISRDDSKNSLYLQMNSLKTEDTAVYYCRYVHYAASYGVDAWGQGTTVTVSS VL: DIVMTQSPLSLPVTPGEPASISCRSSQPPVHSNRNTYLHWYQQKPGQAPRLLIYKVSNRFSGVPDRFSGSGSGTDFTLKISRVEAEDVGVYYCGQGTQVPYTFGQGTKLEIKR (field: log10 of Kd) = 1.77
